propertyName: melting point

Example entries and their recorded answers appear below.
>>> result("CCCCc1nc2c(N)nc3cccnc3c2n1CCNC(=O)C1CCCCC1")
"188 to 190 °C"
>>> result("CC1(C)Cc2cccc(Oc3ccc(NC(=O)NC(=O)c4c(F)cccc4F)cc3Cl)c2O1")
"171 °C"
>>> result("Cc1cc2c(-c3cccc(N)c3)c(CC(=O)Nc3ccc(Cl)cc3C(F)(F)F)c(=O)oc2cc1Cl")
"206 to 207 °C"
>>> result("CC[Si](C#CC1(CO)OC(n2ccc(=O)[nH]c2=O)C(O)C1O)(CC)CC (centres undefined)")
"183 to 186 °C"
>>> result("Cc1ccc(S(=O)(=O)OCC2COc3ccccc3O2)cc1 (centres undefined)")
"79 °C"

Briefly, melting point measured for CC(Cl)(Cl)C(=O)NC(=O)C(N)=O : 110 °C

Record COC(=O)c1ccc(CCNCC(O)c2ccccc2Cl)cc1 (centres undefined) . Reported melting point: 94 to 95 °C

Memo: CC1(C)SC(C)(C)C1C(=O)O , reported melting point: 149 to 151 °C

Form: compound = COC(=O)c1ccc(CNC(=O)C2Cc3ccccc3N2S(=O)(=O)c2ccc(-c3cccc(C(F)(F)F)c3)cc2)c(Cl)c1 (centres undefined) ; melting point = 78 to 87 °C

###

Here, each record is paired with measured melting point data.
// units = °C; emit number, no label

>>> result("CCc1nn(CCO)c(CC)c1Oc1cc(C#N)cc(SC)c1")
72

The molecule N#CCc1ccc2nc(-c3ccccc3)oc2c1 showed melting point equal to 144

###

propertyName: melting point

Example entries begin here.
>>> result("O=C1CCC(N2Cc3c(OCc4ccc(CN5CCOCC5)cc4)cccc3C2=O)C(=O)N1 (stereo not given)")
"206 to 208 °C"
>>> result("FC(F)(F)c1ccc(-c2ncc(C#Cc3cc4ccccc4s3)s2)cc1")
"178 to 180 °C"
>>> result("CNC(=O)N(O)C(C)c1cc2cc(Cl)ccc2[nH]1 (stereo not given)")
"159 to 160 °C"
>>> result("CCCc1nnc(-c2ccc(N(C)C)cc2)n1-c1ccc(OC)cc1")
"160 °C"
>>> result("Cn1ncnc1COc1nc2c(cc1-c1ccco1)nnn2-c1ccccc1F")
"170 to 173 °C"

Looking up CS(=O)(=O)c1ccc(-c2cc(C(=O)CCCO)nn2-c2ccc(Br)cc2)cc1 , I see its melting point listed as 136 to 137 °C

molecule COc1cnc(CSc2nc3cc4c(cc3[nH]2)OC(F)(F)O4)cc1OC , melting point observed: 189 to 191 °C

###

Listed compounds paired with reported melting point

Some solved entries appear below for comparison.
>>> result("CSc1c(C=C(C#N)S(C)(=O)=O)c2ccccc2n1Cc1ccccc1")
"125 to 126 °C"
>>> result("O=C(CCc1ccc(NC(=O)C(F)(F)F)c([N+](=O)[O-])c1)N1CCCCC1")
"102 to 103 °C"
>>> result("CCCNC(=O)C(C)NC(=O)C(NC(=O)OCc1ccccc1)C(Cc1ccccc1)C(=O)O (centres undefined)")
"169 to 171 °C"

Field melting point (entry CCOC(=O)C(C#N)C(=O)c1nn(-c2ccccc2)c2c1COc1ccccc1-2 (centres undefined) ) reads 176 to 178 °C

For this compound ( CC(C)(C)OC(=O)N1CCc2onc(O)c2C1 ), measured melting point is 151 to 152 °C

The value of melting point measured for the compound Nc1ncc(S(=O)(=O)Nc2ccc(Br)c3c(Cl)c[nH]c23)cn1 turned out to be 285 to 289 °C

CCON=C(CC)C1=C(OC(=O)c2ccccc2)CC(c2c(C)cc(C)cc2C)CC1=O (centres undefined) yielded melting point of 94 to 95.5 °C

Given item CC(C)(Br)C(=O)OCCN1C(=O)c2ccccc2C1=O , the value recorded as its melting point is 63 to 65 °C

The reported melting point of the compound COC(=O)Nc1nc(-c2ccccc2)c(-c2nc3ccccc3c(=O)n2-c2cccc(C)c2)s1 was 268 to 269 °C

This collection of values is drawn from a melting point compilation (Tetko et al.; mined from patent text by program, amines drawn as free bases though some values may be those of a salt).
